- System: A549/ATCC NSCLC
- procedure-summary: NCI-60 one-dose screen, 48 h
- experimental-setup: 10 µM unless noted
The panel holds about 83,000 compounds, 20% with a hit somewhere; the sample as a whole holds those more often. Active and inactive are the calls of the source. How the source made its calls: active means growth percent below 10; inactive means the rest.
Possible outcomes: active, inactive

COc1ccc2nc(-c3c(-c4ccccc4)nc4ncccn34)[nH]c2c1    inactive
CCOC(=O)C1OC1(c1ccccc1)c1ccccc1 (stereo unspecified)    inactive
C=C(C)[C@@H]1CC[C@]2(C(=O)OC)CC[C@]3(C)[C@H](CC[C@@H]4[C@@](C)(CC/C(N)=N/O)[C@H](C(=C)C)CC[C@]43C)[C@@H]12    inactive
CN(C)CCCCC(C(=O)CBr)(c1ccccc1)c1ccccc1    inactive
NC(N)=N/N=C/c1ccc(-c2ccc(-c3ccc(Cl)cn3)s2)cc1    inactive
Cc1ccc(S(=O)(=O)Nc2ccc(-c3cc(-c4cccc(F)c4)c(C#N)c(N)n3)cc2)cc1    inactive
COC(=O)[C@]12CC[C@@H](C)[C@H](C)[C@@H]1C1=CC(=O)[C@@H]3[C@@]4(C)C[C@@H](O)[C@H](O)[C@@]5(C)COC(=C45)C[C@@]3(C)[C@]1(C)CC2    inactive
COc1ccc(-c2nc3c(c(C)nn3-c3ccc(F)cc3)c(=O)[nH]2)cc1    inactive
CC/C=C\C[C@H]1CC=C2C(=O)C=C[C@@H]2CC=CCCCC(=O)O[C@@H](CCCCC)CC=C2C(=O)C=C[C@@H]2CC=CCCCC(=O)O[C@@H](CCCCC)CC=C2C(=O)C=C[C@@H]2CC=CCCCC(=O)O[C@@H](CCCCC)CC=C2C(=O)C=C[C@@H]2CC=CCCCC(=O)O1    inactive
CN(C)c1cccc2[nH]c(-c3[nH]ncc3Nc3ccnc(N)n3)nc12    active
N#Cc1cnc2cc(OC[C@@H](O)CO)c(NC(=O)C3CCCC3)cc2c1Nc1ccc(OCc2cccc(F)c2)c(Cl)c1    inactive
C=C(C)[C@@H]1CC[C@]2(C)[C@H](CC=C3[C@@H]4CC(C)(C)CC[C@]4(C(=O)OC)CC[C@]32C)[C@@]1(C)CC/C(N)=N/O    active
CC(C)(C)c1ccc(OCCCCCCCN2CCNCC2)cc1    inactive
COc1cc(OC)c2c(c1)c1nc3cc(C)c(C)cc3nc1n2CCN(C)C    inactive
NCCn1cc(-c2nc(-c3c[nH]c4ncccc34)cs2)c2cc(F)ccc21    inactive
CC1(C)NCCC[C@]2(C)[C@H]3CC[C@@H]4[C@H]5[C@H](C(=O)/C=C/c6ccccn6)CC[C@]5(CO)CC[C@@]4(C)[C@]3(C)CC[C@@H]12    inactive

----------
- System: OVCAR-8 ovarian
- procedure-summary: NCI-60 one-dose screen, 48 h (100 = growth as untreated, 0 = no growth, -100 = all killed)
- experimental-setup: 10 µM unless noted
This is part of a sample that, as a whole, favours compounds with a hit. Of some 83,000 tested, about 20% had one in any assay. Calls of active or inactive are those of the source. The calls were made as follows: active = growth percent below 10; inactive = the rest.
experimental-readout: growth

CCCCCCCCNc1cccc2c1C(=O)c1ccccc1C2=O    111% (inactive)
Fc1ccc2[nH]cc(-c3nc(-c4c[nH]c5ncccc45)cs3)c2c1    36.6% (inactive)
COc1ccc(NC(=O)c2ccoc2COc2ccccc2)cc1    100% (inactive)
CC(C)(C)c1cc(-n2c(-c3ccc(Cl)cc3)nc3cc(C(=O)Nc4ccc(Cl)cc4)ccc32)n[nH]1    61.6% (inactive)
CC[C@]12C=CCN3CC[C@@]4(c5cc([C@H]6CCC(=O)N6)c(OC)cc5N(C)[C@H]4[C@@](O)(C(=O)OC)[C@@H]1OC(C)=O)[C@@H]32    103% [2.5 µM] (inactive)
Brc1cnc2[nH]cc(-c3nnc(-c4ccccc4)o3)c2c1    84.7% (inactive)
O=S(=O)(NCCNc1cc(-c2cn(-c3ccccc3)nc2-c2cccc(O)c2)ccn1)c1ccc(Cl)cc1    31% (inactive)
Cc1cc(Cl)nc(N(CCCNc2ccnc3cc(Cl)ccc23)Cc2ccco2)n1    14.5% (inactive)
Cc1ccc(N(CC(=O)Nc2ccc(S(=O)(=O)NC3CCN(C)CC3)cc2)S(=O)(=O)c2ccc(Cl)cc2)cc1    96.2% (inactive)
